target: full-length human RORγt (Homo sapiens (Human)); assay: RORγt (full-length human) reporter assay, Conditions B or C; type: cell-based; details: at 1 μM compound concentration; read-out: RORγt (FL) Reporter Assay B or C, % inhibition
Sequence (P51449 other isoform, or with tags, fused parts or gaps): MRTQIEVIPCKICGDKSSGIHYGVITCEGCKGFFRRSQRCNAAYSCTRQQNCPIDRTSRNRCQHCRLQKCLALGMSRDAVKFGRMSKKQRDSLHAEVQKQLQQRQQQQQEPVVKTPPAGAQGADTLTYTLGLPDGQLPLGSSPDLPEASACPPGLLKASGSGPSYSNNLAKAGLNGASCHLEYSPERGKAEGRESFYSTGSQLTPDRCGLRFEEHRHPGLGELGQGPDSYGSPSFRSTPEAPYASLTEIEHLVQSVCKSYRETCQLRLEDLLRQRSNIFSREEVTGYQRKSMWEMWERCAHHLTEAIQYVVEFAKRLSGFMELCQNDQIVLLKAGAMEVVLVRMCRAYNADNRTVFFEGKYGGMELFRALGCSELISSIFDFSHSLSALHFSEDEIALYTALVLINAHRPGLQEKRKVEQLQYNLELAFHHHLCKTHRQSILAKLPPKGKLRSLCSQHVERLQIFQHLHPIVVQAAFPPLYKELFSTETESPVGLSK
reported metric: inhibition at 1 µM (%)

INSERT INTO measurements (molecule, target_of_assay, readout_value) VALUES
  ('C[C@H]1CCCN1C(=O)c1nc(C(=O)NCC(C)(C)O)sc1-c1cnc(NCC2(C(F)(F)F)CC2)cc1C(F)F', 'full-length human RORγt (Homo sapiens (Human))', 118),
  ('C[C@H](Nc1cc(C(F)F)c(-c2sc(C(=O)NC3CCS(=O)(=O)CC3)nc2C(=O)N2CC(F)(F)C[C@@H]2C)cn1)C(F)(F)F', 'full-length human RORγt (Homo sapiens (Human))', 98),
  ('CC(C)(C)Nc1cc(C(F)F)c(-c2sc(C(=O)N[C@H]3CC[C@H](O)C3)nc2C(=O)N2C3CCC2CC3)cn1', 'full-length human RORγt (Homo sapiens (Human))', 133),
  ('C[C@H]1CCCN1C(=O)c1nc(C(=O)NCC(C)(C)O)sc1-c1cnc(N[C@H]2CCCC2(F)F)cc1C(F)(F)F (single isomer, unassigned)', 'full-length human RORγt (Homo sapiens (Human))', 109),
  ('C[C@H]1CC(F)(F)CN1C(=O)c1nc(C(=O)N[C@H]2C[C@H](O)C2)sc1-c1cnc(N[C@@H](C2CC2)C(F)(F)F)cc1C(F)F', 'full-length human RORγt (Homo sapiens (Human))', 99),
  ('C[C@H]1CCCN1C(=O)c1nc(C(=O)N[C@H]2C[C@H](O)C2)sc1-c1cnc(NC2(C)CCC2)cc1C(F)F', 'full-length human RORγt (Homo sapiens (Human))', 97);

###

molecular target: human RORγt ligand binding domain (RORγt LBD) (Homo sapiens (Human), UniProt P51449); experiment: RORγt ThermoFluor® assay (thermal shift binding); settings: read-out: ThermoFluor® Assay, Kd
Sequence (P51449 other isoform, or with tags, fused parts or gaps): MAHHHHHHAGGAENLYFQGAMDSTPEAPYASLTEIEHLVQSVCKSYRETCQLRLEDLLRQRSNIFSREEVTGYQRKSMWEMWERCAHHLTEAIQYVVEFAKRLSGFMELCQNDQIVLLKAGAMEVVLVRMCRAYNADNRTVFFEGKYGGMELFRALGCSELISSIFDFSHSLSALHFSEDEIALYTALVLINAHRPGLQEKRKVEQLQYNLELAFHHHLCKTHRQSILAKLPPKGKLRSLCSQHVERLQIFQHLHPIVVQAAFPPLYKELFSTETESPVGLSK
reported metric: Kd (nM)

Look over these answered cases.
INSERT INTO assay_data (molecule, target_of_assay, reported_metric, readout_value) VALUES
  ('C[C@H](Nc1cc(C(F)(F)F)c(-c2sc(C(=O)NCC(C)(C)O)nc2C(=O)N2CCC(F)CC2)cn1)C1CC1', 'human RORγt ligand binding domain (RORγt LBD) (Homo sapiens (Human), UniProt P51449)', 'Kd', 2.8),
  ('C[C@H]1CCCN1C(=O)c1nc(C(=O)N[C@H](C)C(C)(C)O)sc1-c1cnc(NC(C)(C)C)cc1C(F)F', 'human RORγt ligand binding domain (RORγt LBD) (Homo sapiens (Human), UniProt P51449)', 'Kd', 4.9),
  ('C[C@H]1CCCN1C(=O)c1nc(C(=O)NCC2(O)CCC2)sc1-c1cnc(NC2CCCC2)cc1C(F)F', 'human RORγt ligand binding domain (RORγt LBD) (Homo sapiens (Human), UniProt P51449)', 'Kd', 3.7),
  ('C[C@H](Nc1cc(C(F)(F)F)c(-c2sc(C(=O)NCC(C)(C)O)nc2C(=O)N2CCCC[C@@H]2C)cn1)C(F)(F)F', 'human RORγt ligand binding domain (RORγt LBD) (Homo sapiens (Human), UniProt P51449)', 'Kd', 0.5),
  ('CC(C)(C)CNc1cc(C(F)(F)F)c(-c2sc(C(=O)NCC(C)(C)O)nc2C(=O)N2C3CCC2CC3)cn1', 'human RORγt ligand binding domain (RORγt LBD) (Homo sapiens (Human), UniProt P51449)', 'Kd', 1.2),
  ('C[C@H]1CCCN1C(=O)c1nc(C(=O)NCC(C)(C)O)sc1-c1cnc(NC(C2CC2)C2CC2)cc1C(F)(F)F', 'human RORγt ligand binding domain (RORγt LBD) (Homo sapiens (Human), UniProt P51449)', 'Kd', 1.1),
  ('CC(C)(O)CNC(=O)c1nc(C(=O)N2CCC(F)CC2)c(-c2cnc(NCCC(F)(F)F)c(C(F)(F)F)c2)s1', 'human RORγt ligand binding domain (RORγt LBD) (Homo sapiens (Human), UniProt P51449)', 'Kd', 230),
  ('C[C@H]1CCCN1C(=O)c1nc(C(=O)NC2(CO)COC2)sc1-c1cnc(NC(C)(C)C)cc1C(F)(F)F', 'human RORγt ligand binding domain (RORγt LBD) (Homo sapiens (Human), UniProt P51449)', 'Kd', 2.6);

A: C[C@H]1CCCN1C(=O)c1nc(C(=O)NC[C@@H](O)CO)sc1-c1cnc(NC(C)(C)C)cc1C(F)(F)F
B: C[C@H](Nc1cc(C(F)(F)F)c(-c2sc(C(=O)NCC(C)(C)O)nc2C(=O)N2CCC[C@@H]2C)cn1)C(F)(F)F
C: C[C@H](Nc1cc(C(F)F)c(-c2sc(C(=O)N[C@H](C)C(C)(C)O)nc2C(=O)N2CC(F)(F)C[C@@H]2C)cn1)C1CC1
D: CC[C@@H](Nc1cc(C(F)(F)F)c(-c2sc(C(=O)NCC(C)(C)O)nc2C(=O)N2CCC[C@@H]2C)cn1)C(F)(F)F
**Query** Which order do these items take when sorted by rising Kd? List them. # list labels per requested ordering
**Result** D, B, C, A

a: C[C@H]1CCCN1C(=O)c1nc(C(=O)N2C[C@@H]3C[C@H]2CO3)sc1-c1cnc(NC(C)(C)C)cc1C(F)(F)F
b: C[C@H]1CCCN1C(=O)c1nc(C(=O)NC2CCCC2O)sc1-c1cnc(NC(C)(C)C)cc1C(F)(F)F (some centres unmarked)
c: C[C@H]1CC(F)(F)CN1C(=O)c1nc(C(=O)NCC(C)(C)O)sc1-c1cnc(NC(C)(C)C2CC2)cc1C(F)F
d: CC(C)(O)CNC(=O)c1nc(C(=O)N2CCC(F)CC2)c(-c2cnc(NC3CCCC(F)(F)C3)c(C(F)(F)F)c2)s1 (centres unmarked)
**Query** // sort entries: Kd, high to low # list labels per requested ordering
**Result** d, a, c, b
(d: 37 nM, a: 10 nM, c: 0.79 nM, b: 0.38 nM)
